Quick reference for Relative activity [%] 2 min among some compounds
- System: 1,3-dicarbonyl-dioxygenase (Acinetobacter johnsonii)
- Sequence (Q8GNT2 whole entry): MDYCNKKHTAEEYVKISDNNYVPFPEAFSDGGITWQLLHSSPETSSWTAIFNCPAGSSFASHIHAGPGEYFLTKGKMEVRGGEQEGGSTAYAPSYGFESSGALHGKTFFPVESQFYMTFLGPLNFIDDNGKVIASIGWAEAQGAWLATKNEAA
- Format: biochemical
- Experimental parameters: inhibitor 2.5 mM, 2 min incubation, 0.5 mM acetylacetone, pH 7.5
- Procedure: The freshly prepared solutions of the respecitive inhibitors in buffer were added to partially purified enzyme, which then was incubated at room temperature. The freshly prepared solutions of the respective inhibitors in buffer were added to partially purified enzyme, which then was incubated at room temperature. […]
Endpoint: Relative activity [%] 2 min (%)

                                   compound                                    system  readout_number
0  O=C(O)c1cc(SSc2ccc([N+](=O)[O-])c(C(=O)O)c2)ccc1[N+](=O)[O-] [DTNB, ‘5’-Dithio-bis-(2-dinitrobenzoic acid)]  1,3-dicarbonyl-dioxygenase (Acinetobacter johnsonii)              88
1        O=C1CCC(=O)O1 [Succinic anhydride]  1,3-dicarbonyl-dioxygenase (Acinetobacter johnsonii)              62
2                    CCN=C=NCCCN(C)C [EDAC]  1,3-dicarbonyl-dioxygenase (Acinetobacter johnsonii)             100
3  CCOC(=O)OC(=O)OCC [Diethyl-pyrocarbonate]  1,3-dicarbonyl-dioxygenase (Acinetobacter johnsonii)              18
